- PROCEDURE_SUMMARY: Inhibition of HIV reverse transcriptase
- Set-up: species or system Human immunodeficiency virus
MEASURED_PARAMETER: IC50

Below are worked cases with known answers.
SAMPLE_SMILES: CC(C)Nc1cccnc1N1CCN(C(=O)c2[nH]c3ccc(C(=O)/C=C(\O)C(=O)O)cc3c2Br)CC1
MEASURED_PARAMETER: IC50
OBS_VALUE: 0.12 µM
//
SAMPLE_SMILES: CC(C)Nc1cccnc1N1CCN(C(=O)c2cc3cccc(C(=O)/C=C(\O)C(=O)O)c3[nH]2)CC1
MEASURED_PARAMETER: IC50
OBS_VALUE: > 100 µM

Below: the item to evaluate.
Request: Name the recorded IC50 of the molecule listed here: `CC(C)Nc1cccnc1N1CCN(C(=O)c2[nH]c3c(C(=O)/C=C(\O)C(=O)O)cccc3c2Cl)CC1`
Result: > 100 µM
